- Test system: hiPSC-CMs (iCell-Cardiomyocytes^2)
- Settings: 0.1 µM, 24h
Parameter: FPD (field-potential duration), % change from baseline (%)
Please give a number only; it is taken to be in %.

Solved entries:
Compound: CCN(CC)CCNC(=O)c1c(C)[nH]c(/C=C2\C(=O)Nc3ccc(F)cc32)c1C
Experimental target: hiPSC-CMs (iCell-Cardiomyocytes^2)
Recorded value: 25.6

Compound: N=C(N)c1ccc(OCCCCCOc2ccc(C(=N)N)cc2)cc1
Experimental target: hiPSC-CMs (iCell-Cardiomyocytes^2)
Recorded value: 2

Compound: COc1cccc2c1C(=O)c1c(O)c3c(c(O)c1C2=O)C[C@@](O)(C(=O)CO)C[C@@H]3O[C@H]1C[C@H](N)[C@H](O)[C@H](C)O1
Experimental target: hiPSC-CMs (iCell-Cardiomyocytes^2)
Recorded value: -18.2

Compound: Cc1cn(-c2cc(NC(=O)c3ccc(C)c(Nc4nccc(-c5cccnc5)n4)c3)cc(C(F)(F)F)c2)cn1
Experimental target: hiPSC-CMs (iCell-Cardiomyocytes^2)
Recorded value: 19.8

Turning now to a further record.
q: Quick one: FPD (field-potential duration), % change from baseline of O=C(O)COCCN1CCN(C(c2ccccc2)c2ccc(Cl)cc2)CC1 (centres unmarked) ?
a: 8.9
